# EXPERIMENTAL DETAILS: Drug level in Wistar rat plasma at 100 mg/kg, po after 3 hrs
# Assay type: ADME, organism-based
# Set-up: dose 100 mg/kg, route oral
ASSAY READOUT: concentration at 3 h (ng/mL)
Answers are plain numbers, in ng/mL.

Query: Look at this compound and give its reported concentration at 3 h. COc1cccc(OC)c1[C@@H]1C[C@H](F)C(=O)N1Cc1ccc(OC(F)(F)F)cc1 (racemic)
Result: 87

###

# SYSTEM: Cytochrome P450 3A4 (Homo sapiens, UniProt P08684)
# Sequence (P08684 whole entry): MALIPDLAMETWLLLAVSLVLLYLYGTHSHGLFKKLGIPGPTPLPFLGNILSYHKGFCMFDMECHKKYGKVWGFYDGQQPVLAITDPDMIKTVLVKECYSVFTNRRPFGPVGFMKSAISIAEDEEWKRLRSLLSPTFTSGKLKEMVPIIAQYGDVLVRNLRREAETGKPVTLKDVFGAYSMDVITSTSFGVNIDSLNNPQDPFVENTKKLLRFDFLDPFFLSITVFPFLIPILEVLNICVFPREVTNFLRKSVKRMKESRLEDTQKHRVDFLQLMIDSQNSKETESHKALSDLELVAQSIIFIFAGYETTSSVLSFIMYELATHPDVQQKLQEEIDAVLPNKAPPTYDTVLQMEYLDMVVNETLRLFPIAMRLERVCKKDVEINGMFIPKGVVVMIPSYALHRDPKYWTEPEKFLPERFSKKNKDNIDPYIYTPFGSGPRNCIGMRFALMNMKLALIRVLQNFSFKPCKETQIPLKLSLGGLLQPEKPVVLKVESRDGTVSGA
# EXPERIMENTAL DETAILS: Inhibition of CYP3A4 (unknown origin) using testosterone as marker substrate
# Assay type: ADME
pIC50: −log10 of the molar value.
Decide by pIC50: equal to or exceeding 5 means Criterion met, less means Criterion not met.

Field: example entries. Status: answers known.
• COc1cccc(OC)c1[C@@H]1C[C@H](Cl)C(=O)N1Cc1ccc(OC(F)(F)F)cc1 (racemic) = Criterion met
• COc1cccc(OC)c1[C@@H]1C[C@H](OC)C(=O)N1Cc1ccc(OC(F)(F)F)cc1 (racemic) = Criterion met
• COc1cccc(F)c1[C@@H]1C[C@@H](O)C(=O)N1Cc1ccc2oc3ccccc3c2c1 = Criterion not met

Query: Given the entry COc1cccc(OC)c1C1CCC(=O)N1Cc1ccc2oc3ccccc3c2c1 (racemic) , answer whether its pIC50 meets or surpasses 5.
Result: Criterion met

Query: Confirm if pIC50 reported for the compound COc1cccc(F)c1[C@@H]1C[C@H](F)C(=O)N1Cc1ccc2oc3ccccc3c2c1 (racemic) is 5 or above.
Result: Criterion not met

Query: Kindly determine if pIC50 recorded for COc1cccc(F)c1C1C[C@@H](O)C(=O)N1Cc1ccc2oc3ccccc3c2c1 (mixture of isomers) is above or exactly 5.
Result: Criterion not met

Query: Exam item: decide whether the reported pIC50 for COc1cccc(OC)c1C1CC(F)(F)C(=O)N1Cc1ccc(OC(F)(F)F)cc1 (racemic) is at least 5.
Result: Criterion met

Query: For this compound, is measured pIC50 5 or higher? COc1cccc(OC)c1[C@@H]1C[C@@H](O)C(=O)N1Cc1ccc(OC(F)(F)F)cc1 (racemic)
Result: Criterion not met

###

# SYSTEM: Orexin receptor type 2 (Homo sapiens)
# Sequence (O43614 whole entry, looked up): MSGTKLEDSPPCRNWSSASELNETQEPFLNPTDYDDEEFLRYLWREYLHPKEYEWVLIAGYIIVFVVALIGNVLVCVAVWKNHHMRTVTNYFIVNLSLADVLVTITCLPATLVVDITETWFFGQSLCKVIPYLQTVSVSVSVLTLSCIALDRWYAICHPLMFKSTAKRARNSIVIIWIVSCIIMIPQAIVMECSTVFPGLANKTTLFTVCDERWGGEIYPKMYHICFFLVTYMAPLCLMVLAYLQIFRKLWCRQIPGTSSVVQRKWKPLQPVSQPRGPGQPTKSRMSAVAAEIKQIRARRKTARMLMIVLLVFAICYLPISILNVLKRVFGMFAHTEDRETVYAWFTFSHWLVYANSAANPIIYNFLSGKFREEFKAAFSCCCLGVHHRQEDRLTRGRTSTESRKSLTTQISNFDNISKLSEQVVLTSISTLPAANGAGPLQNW
# EXPERIMENTAL DETAILS: Antagonist activity at human orexin 2 receptor expressed in CHO cells assessed as inhibition of orexin-A-induced calcium mobilization by FLIPR assay
ASSAY READOUT: pIC50
Numbers only, as −log10 of the molar value.

Examples with answers:
- CN[C@H]1C[C@@H](c2c(OC)cccc2OC)N(Cc2ccc(OC(F)(F)F)cc2)C1=O (racemic): 5.24
- COc1cccc(OC)c1[C@@H]1C[C@H](N)C(=O)N1Cc1ccc(OC(F)(F)F)cc1 (racemic): 5.15
- COc1cccc(OC)c1[C@@H]1C[C@@H](N)C(=O)N1Cc1ccc(OC(F)(F)F)cc1 (racemic): 5.70

Query: # get_value(readout='pIC50', item= COc1cccc(OC)c1[C@@H]1C[C@H](N(C)C)C(=O)N1Cc1ccc(OC(F)(F)F)cc1 (racemic) )
Result: 5.06

###

# SYSTEM: Orexin receptor type 2 (Homo sapiens)
# EXPERIMENTAL DETAILS: Antagonist activity at human orexin 2 receptor expressed in CHO cells assessed as inhibition of orexin-A-induced calcium mobilization by FLIPR assay
ASSAY READOUT: pIC50
Answers are plain numbers, as −log10 of the molar value.

Previously resolved entries follow.
* CCO[C@H]1C[C@@H](c2c(OC)cccc2OC)N(Cc2ccc(OC(F)(F)F)cc2)C1=O (racemic) | 5.40
* CN[C@@H]1C[C@@H](c2c(OC)cccc2OC)N(Cc2ccc(OC(F)(F)F)cc2)C1=O (racemic) | 5.62

With those in mind, consider the next compound.
Query: Looking for the measured pIC50 of COc1cccc(OC)c1[C@@H]1C[C@@H](N(C)C)C(=O)N1Cc1ccc(OC(F)(F)F)cc1 (racemic) , can you help?
Result: 5.44
